- CONDITIONS USED: in isopropanol, 279 K
MEASURE NAME: solubility (mole fraction)
Number, no unit, nothing else.

Q: Which solubility (mole fraction) is reported for this compound? "O=C(O)/C=C/C(=O)O"
Result: 0.0109

----------
- CONDITIONS USED: in ethanol, 327 K
MEASURE NAME: solubility (mole fraction)
Returns: the value as a bare number; no unit string appended.

Q: So what's the measured solubility (mole fraction) for this one? "O=C(O)/C=C/C(=O)O"
Result: 0.0344

----------
- CONDITIONS USED: in ethanol, 303 K
MEASURE NAME: solubility (mole fraction)
Answer as a number with no unit attached.

Q: Name the reported solubility (mole fraction) value associated with the compound "O=C(O)/C=C/C(=O)O"
Result: 0.0205

----------
- CONDITIONS USED: in isopropanol, 297 K
MEASURE NAME: solubility (mole fraction)
Hey, just send me the number, nothing else.

Q: Item "O=C(O)/C=C/C(=O)O" has what recorded solubility (mole fraction)?
Result: 0.0202

----------
- CONDITIONS USED: in acetone, 297 K
MEASURE NAME: solubility (mole fraction)
Keep the answer to the number alone.

Q: Need solubility (mole fraction) of "O=C(O)/C=C/C(=O)O" , thanks.
Result: 0.00583

----------
- CONDITIONS USED: in acetone, 303 K
MEASURE NAME: solubility (mole fraction)
Give the figure by itself; no unit, no explanation.

Q: Param item = "O=C(O)/C=C/C(=O)O" ; retrieve measured solubility (mole fraction).
Result: 0.00673

----------
- CONDITIONS USED: in acetone, 321 K
MEASURE NAME: solubility (mole fraction)

Q: Reported solubility (mole fraction) for "O=C(O)/C=C/C(=O)O" : what is it?
Result: 0.00972

----------
- CONDITIONS USED: in water, 333 K
MEASURE NAME: solubility (mole fraction)

Q: I would be grateful if you could share the reported solubility (mole fraction) for "O=C(O)/C=C/C(=O)O" .
Result: 0.00541

----------
- CONDITIONS USED: in isopropanol, 291 K
MEASURE NAME: solubility (mole fraction)

Q: Form field: reported solubility (mole fraction) of "O=C(O)/C=C/C(=O)O"
Result: 0.0169

----------
- CONDITIONS USED: in water, 309 K
MEASURE NAME: solubility (mole fraction)
Write the number on its own, no unit after it.

Q: Requested read-out: solubility (mole fraction). Entry: "O=C(O)/C=C/C(=O)O"
Result: 0.00221

----------
- CONDITIONS USED: in n-propanol, 351.8 K
MEASURE NAME: solubility (mole fraction)
// response body must contain only the number

Q: Item under review: "O=C(O)/C=C/C(=O)O" . Reported solubility (mole fraction)?
Result: 0.0486

----------
- CONDITIONS USED: in isopropanol, 327 K
MEASURE NAME: solubility (mole fraction)
# answer = number (no unit)

Q: Query: solubility (mole fraction); subject: "O=C(O)/C=C/C(=O)O"
Result: 0.0391

----------
- CONDITIONS USED: in water, 285 K
MEASURE NAME: solubility (mole fraction)
Answer with a number only.

Q: Entry "O=C(O)/C=C/C(=O)O" has what solubility (mole fraction)?
Result: 0.000435

----------
- CONDITIONS USED: in isopropanol, 333 K
MEASURE NAME: solubility (mole fraction)
Form: value (number only, do not type unit).

Q: Using the record for "O=C(O)/C=C/C(=O)O" , report its solubility (mole fraction).
Result: 0.0435

----------
- CONDITIONS USED: in ethanol, 309 K
MEASURE NAME: solubility (mole fraction)
No unit in the answer, only the number.

Q: Find the recorded solubility (mole fraction) belonging to "O=C(O)/C=C/C(=O)O" and report it.
Result: 0.0233

----------
- CONDITIONS USED: in n-propanol, 309 K
MEASURE NAME: solubility (mole fraction)
Please give only the number in your answer, with no unit.

Q: Could you tell me which solubility (mole fraction) is on file for "O=C(O)/C=C/C(=O)O" ?
Result: 0.0189

----------
- CONDITIONS USED: in n-propanol, 285 K
MEASURE NAME: solubility (mole fraction)
Just the number.

Q: // returns reported solubility (mole fraction) for input "O=C(O)/C=C/C(=O)O"
Result: 0.0103

----------
- CONDITIONS USED: in acetone, 333 K
MEASURE NAME: solubility (mole fraction)
The reply should be a number, written without any unit.

Q: Given "O=C(O)/C=C/C(=O)O" , state its recorded solubility (mole fraction).
Result: 0.012

----------
- CONDITIONS USED: in acetone, 327 K
MEASURE NAME: solubility (mole fraction)
Give the figure by itself; no unit, no explanation.

Q: Param item = "O=C(O)/C=C/C(=O)O" ; retrieve measured solubility (mole fraction).
Result: 0.0108

----------
- CONDITIONS USED: in isopropanol, 321 K
MEASURE NAME: solubility (mole fraction)
Just the number, please.

Q: Name the reported solubility (mole fraction) value associated with the compound "O=C(O)/C=C/C(=O)O"
Result: 0.0349

----------
- CONDITIONS USED: in isopropanol, 342 K
MEASURE NAME: solubility (mole fraction)
Reply with just the number.

Q: Requested field: solubility (mole fraction). Item: "O=C(O)/C=C/C(=O)O"
Result: 0.0538

----------
- CONDITIONS USED: in n-propanol, 327 K
MEASURE NAME: solubility (mole fraction)
Simply state the number, no unit and no words.

Q: What does the data say about its solubility (mole fraction)? Entry: "O=C(O)/C=C/C(=O)O"
Result: 0.0274

----------
- CONDITIONS USED: in water, 321 K
MEASURE NAME: solubility (mole fraction)
Give the figure by itself; no unit, no explanation.

Q: Consider the compound shown here: "O=C(O)/C=C/C(=O)O" What is its recorded solubility (mole fraction)?
Result: 0.00328

----------
- CONDITIONS USED: in isopropanol, 315 K
MEASURE NAME: solubility (mole fraction)
Respond with the number and no other words.

Q: Given the compound "O=C(O)/C=C/C(=O)O" , what is its reported solubility (mole fraction)?
Result: 0.031

----------
- CONDITIONS USED: in ethanol, 285 K
MEASURE NAME: solubility (mole fraction)
Reply with just the number.

Q: Entry "O=C(O)/C=C/C(=O)O" : reported solubility (mole fraction) = ?
Result: 0.014

----------
- CONDITIONS USED: in acetone, 279 K
MEASURE NAME: solubility (mole fraction)
Answer with the value's number alone.

Q: Requested field: solubility (mole fraction). Item: "O=C(O)/C=C/C(=O)O"
Result: 0.00344

----------
- CONDITIONS USED: in water, 315 K
MEASURE NAME: solubility (mole fraction)
Lab note: jot down the number only; don't add units.

Q: Could you tell me which solubility (mole fraction) is on file for "O=C(O)/C=C/C(=O)O" ?
Result: 0.00265

----------
- CONDITIONS USED: in n-propanol, 333 K
MEASURE NAME: solubility (mole fraction)
Please state the value as a number alone, without comment.

Q: I am curious: what solubility (mole fraction) value has been reported for "O=C(O)/C=C/C(=O)O" ?
Result: 0.0306

----------
- CONDITIONS USED: in water, 353 K
MEASURE NAME: solubility (mole fraction)
Just the number, please, no unit attached.

Q: Fill in: solubility (mole fraction) of "O=C(O)/C=C/C(=O)O" is ___
Result: 0.00884

----------
- CONDITIONS USED: in acetone, 315 K
MEASURE NAME: solubility (mole fraction)

Q: Form field: reported solubility (mole fraction) of "O=C(O)/C=C/C(=O)O"
Result: 0.00867

----------
- CONDITIONS USED: in acetone, 285 K
MEASURE NAME: solubility (mole fraction)

Q: What value of solubility (mole fraction) has been reported for the following compound? "O=C(O)/C=C/C(=O)O"
Result: 0.00419

----------
- CONDITIONS USED: in water, 327 K
MEASURE NAME: solubility (mole fraction)
Reply with the value as a number alone.

Q: What solubility (mole fraction) value was documented for this molecule, "O=C(O)/C=C/C(=O)O" ?
Result: 0.00415

----------
- CONDITIONS USED: in n-propanol, 321 K
MEASURE NAME: solubility (mole fraction)

Q: // solubility (mole fraction) lookup, key: "O=C(O)/C=C/C(=O)O"
Result: 0.0243

----------
- CONDITIONS USED: in acetone, 309 K
MEASURE NAME: solubility (mole fraction)

Q: For the compound "O=C(O)/C=C/C(=O)O" , what solubility (mole fraction) is on record?
Result: 0.00768

Reference source for all entries: BigSolDB 2.1
